Target: Vascular endothelial growth factor receptor 2 (Homo sapiens)
Sequence (P35968 whole entry, the tested form may be a part): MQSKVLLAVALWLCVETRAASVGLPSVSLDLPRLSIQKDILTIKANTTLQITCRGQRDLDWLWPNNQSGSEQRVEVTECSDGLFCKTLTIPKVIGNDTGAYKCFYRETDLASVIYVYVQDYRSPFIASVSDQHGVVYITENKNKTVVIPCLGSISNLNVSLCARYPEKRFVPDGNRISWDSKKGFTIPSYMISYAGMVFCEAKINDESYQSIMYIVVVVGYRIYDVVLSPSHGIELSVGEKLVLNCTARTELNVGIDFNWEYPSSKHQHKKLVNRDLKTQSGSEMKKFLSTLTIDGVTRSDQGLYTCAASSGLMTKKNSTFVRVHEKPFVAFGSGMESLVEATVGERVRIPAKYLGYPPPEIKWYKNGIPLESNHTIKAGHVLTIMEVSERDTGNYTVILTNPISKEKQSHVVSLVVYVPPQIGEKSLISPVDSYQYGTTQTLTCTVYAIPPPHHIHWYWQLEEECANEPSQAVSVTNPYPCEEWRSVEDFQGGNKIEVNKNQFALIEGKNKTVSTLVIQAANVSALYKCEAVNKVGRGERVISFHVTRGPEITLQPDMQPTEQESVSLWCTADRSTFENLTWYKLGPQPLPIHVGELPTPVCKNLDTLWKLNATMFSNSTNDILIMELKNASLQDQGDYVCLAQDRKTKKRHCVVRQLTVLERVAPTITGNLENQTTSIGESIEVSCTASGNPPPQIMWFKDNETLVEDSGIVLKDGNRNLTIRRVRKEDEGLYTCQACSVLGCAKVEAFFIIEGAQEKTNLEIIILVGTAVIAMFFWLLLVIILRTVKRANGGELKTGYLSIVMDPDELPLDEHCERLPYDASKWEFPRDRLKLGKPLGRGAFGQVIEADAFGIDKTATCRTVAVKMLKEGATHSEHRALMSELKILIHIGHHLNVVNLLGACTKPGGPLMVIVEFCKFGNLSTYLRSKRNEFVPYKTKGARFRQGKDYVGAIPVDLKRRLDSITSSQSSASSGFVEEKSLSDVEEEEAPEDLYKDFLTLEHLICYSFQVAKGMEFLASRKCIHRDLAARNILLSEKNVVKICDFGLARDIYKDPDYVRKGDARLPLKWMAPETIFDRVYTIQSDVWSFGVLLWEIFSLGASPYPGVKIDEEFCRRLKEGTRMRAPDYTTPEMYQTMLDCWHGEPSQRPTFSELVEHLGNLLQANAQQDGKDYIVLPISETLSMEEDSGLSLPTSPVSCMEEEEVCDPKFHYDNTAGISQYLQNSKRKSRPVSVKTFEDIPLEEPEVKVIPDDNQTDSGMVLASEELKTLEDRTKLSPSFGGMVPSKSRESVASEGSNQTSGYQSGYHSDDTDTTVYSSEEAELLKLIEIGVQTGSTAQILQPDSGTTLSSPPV
Test: Inhibition of recombinant human N-terminal GST-fused KDR (D807 to V1356 residues) expressed in baculovirus infected […] insect Sf9 cells using poly-EY as substrate after 240 mins by luciferase coupled chemiluminescence assay
Entries and their measured IC50 follow.

Below, 3 compounds whose answers are already recorded.
COc1cc2c(Nc3ccc(Br)c(Cl)c3Cl)ncnc2cc1OC[C@@H]1CN2CCC[C@H]2CO1 = < 0.05 µM
COc1cc2c(Nc3ccc(Br)cc3C)ncnc2cc1OCC1CN(C)CCO1 (stereo not given) = 0.05 to 1 µM
CCCCCCCN1CCOC(COc2cc3ncnc(Nc4ccc(Cl)c(Cl)c4)c3cc2OC)C1 (stereo not given) = 0.05 to 1 µM

Let us examine a further case.
Input: I am curious: what IC50 value has been reported for COc1cc2c(Nc3cc(F)c(Br)cc3F)ncnc2cc1OCC1CN(C)CCO1 (stereo not given) ?
Output: < 0.05 µM

Origin of the recorded values: ChEMBL document CHEMBL3882729
